Tested on: MCF7
Experiment: Cytotoxicity against human MCF7 cells by MTT assay
Type: functional, cell-based
Consider the following compounds; for each one, report its IC50.
Give the quantity in µM, number only.

Query string: # lookup: IC50 of `Cc1oc2c3c(ccc2c(=O)c1C)OC[C@H]1[C@@H]3N(Cc2ccccc2)OC1(C)C`
Result string: 5.78

Query string: # lookup: IC50 of COc1cccc2c1C(=O)c1c(O)c3c(c(O)c1C2=O)C[C@@](O)(C(=O)CO)C[C@@H]3O[C@H]1C[C@H](N)[C@H](O)[C@H](C)O1 [DOXORUBICIN]
Result string: 1.05

Query string: # lookup: IC50 of `Cc1ccc(CN2OC(C)(C)[C@H]3COc4ccc5c(=O)c(C)c(C)oc5c4[C@H]32)cc1`
Result string: 26.5

Query string: # lookup: IC50 of `Cc1oc2c3c(ccc2c(=O)c1C)OC[C@H]1[C@@H]3N(Cc2ccc(F)cc2)OC1(C)C`
Result string: 10.1

----------
Tested on: MCF7
Assay: Cytotoxicity against human MCF7 cells by MTT assay
Assay type: functional, cell-based
pIC50: −log10 of the molar value.
Consider the following compounds; for each one, report its pIC50.

Query string: # lookup: pIC50 of `Cc1coc2c3c(ccc2c1=O)OC[C@H]1[C@@H]3N(Cc2ccccc2)OC1(C)C`
Result string: < 4.00

Query string: # lookup: pIC50 of `Cc1oc2c3c(ccc2c(=O)c1C)OC[C@H]1[C@@H]3N(C2CCCCC2)OC1(C)C`
Result string: < 4.00

Query string: # lookup: pIC50 of `COc1ccc(CN2OC(C)(C)[C@H]3COc4ccc5c(=O)c(-c6ccccc6)c(C)oc5c4[C@H]32)cc1`
Result string: < 4.00
